- experimental-details: Viable cell number, trypan blue exclusion assay
- Format: cell-based
- setup-conditions: human, NCI-H460 cells, 5.2 μM (GI50), read-out: Number of viable cells (in relation to Blank cells)

item-smiles: O=c1c2ccccc2oc2c[n+](Cc3ccccc3)ccc12.[Br-]
unit-descriptor: %
viability at 48 h, 5.2 µM: 71

###

- experimental-details: Viable cell number, trypan blue exclusion assay
- Type: cell-based
- setup-conditions: human, NCI-H460 cells, 4.8 μM (1.5× GI50), read-out: Number of viable cells (in relation to Blank cells)

item-smiles: O=c1c2ccccc2sc2c[n+](Cc3ccccc3)ccc12.[Br-]
viability at 48 h, 4.8 µM / %: 29

Values were extracted from paper PMC6017909.
